- assayInfo: Biodistribution of technetium-labelled peptides
- Assay type: in vivo, CD1 mice
- assayContext: CD1, blood, iv, 80 ug/mouse, total radioactivity; 80 μg/mouse; 1 hour; read-out: injected activity in Blood
quantity: tissue uptake at 1 h
Answer with the figure and its unit, nothing else.

For record CSCC[C@H](NC(=O)[C@H](Cc1ccccc1)NC(=O)[C@H](CC(C)C)NC(=O)[C@H](CCCCN)NC(=O)CCCN(CCN)CCn1nc(C)c(CC(=O)O)c1C)C(=O)N[C@@H](C)C(=O)N[C@@H](CC(C)C)C(=O)N[C@H](C(=O)N[C@@H](C)C(=O)N[C@@H](Cc1ccccc1)C(=O)N[C@@H](CC(C)C)C(=O)N[C@@H](CCCNC(=N)N)C(=O)N[C@@H](Cc1ccccc1)C(=O)N[C@@H](CC(C)C)C(=O)N[C@H](C(=O)O)[C@@H](C)O)C(C)C [^99mTc(CO)3-Pz^1-pepH2, metal not drawn] the listed tissue uptake at 1 h is 3.8 %ID/g

* * *

- assayInfo: Biodistribution of technetium-labelled peptides
- Type: in vivo, CD1 mice
- assayContext: mouse, brain, 10 ug, total radioactivity; CD1 mice, iv; 5 min; 10 μg; read-out: injected activity in Brain
Residues, ends and D or L forms follow the SMILES beside them. *: point of attachment. X1 = Cc1nn(CCN(CCN)CCCC(=O)*)c(C)c1CC(=O)O
Give tissue uptake at 5 min for every item shown.
Answer with the figure and its unit, nothing else.

molecule	result
Cc1nn(CCN(CCN)CCCC(=O)N[C@H](C(=O)N[C@@H](CCC(N)=O)C(=O)N[C@@H](CCC(N)=O)C(=O)N[C@@H](CC(C)C)C(=O)N[C@H](C(=O)N[C@@H](CCCCN)C(=O)N[C@@H](CCCNC(=N)N)C(=O)N[C@@H](Cc2ccccc2)C(=O)N[C@@H](CO)C(=O)N[C@@H](CC(C)C)C(=O)O)[C@@H](C)O)C(C)C)c(C)c1CC(=O)O [^99mTc(CO)3-Pz^1-pepH1, metal not drawn] (X1-VQQLTKRFSL-OH; C-terminus assumed)	0.11 %ID/g

--- query ---
For record CC[C@H](C)[C@H](NC(=O)CNC(=O)[C@H](C)NC(=O)CCCN(CCN)CCn1nc(C)c(CC(=O)O)c1C)C(=O)N[C@@H](CC(C)C)C(=O)N[C@@H](CCCCN)C(=O)N[C@@H](CCCNC(=N)N)C(=O)N[C@@H](Cc1c[nH]c2ccccc12)C(=O)O [^99mTc(CO)3-Pz^1-pepH3, metal not drawn] (X1-AGILKRW-OH; C-terminus assumed) the listed tissue uptake at 5 min is 0.15 %ID/g

* * *

- assayInfo: Biodistribution of technetium-labelled peptides
- Format: in vivo, CD1 mice
- assayContext: CD1, kidney, iv, 140 ug/mouse, total radioactivity; 140 μg/mouse; 1 hour; read-out: injected activity in Kidney
Residues, ends and D or L forms follow the SMILES beside them. *: point of attachment. X1 = Cc1nn(CCN(CCN)CCCC(=O)*)c(C)c1CC(=O)O
quantity: tissue uptake at 1 h
Answer with the figure and its unit, nothing else.

For record CC[C@H](C)[C@H](NC(=O)CNC(=O)[C@H](C)NC(=O)CCCN(CCN)CCn1nc(C)c(CC(=O)O)c1C)C(=O)N[C@@H](CC(C)C)C(=O)N[C@@H](CCCCN)C(=O)N[C@@H](CCCNC(=N)N)C(=O)N[C@@H](Cc1c[nH]c2ccccc12)C(=O)O [^99mTc(CO)3-Pz^1-pepH3, metal not drawn] (X1-AGILKRW-OH; C-terminus assumed) the listed tissue uptake at 1 h is 3.5 %ID/g
